# assay-remarks: Plasma pharmacokinetics, Parkinson's disease patients, once daily for 14 days
# Format: in vivo, human
# condition-details: human, oral, 6 mg, Day 1, plasma, PD patients, read-out: Tmax median
readout: Tmax (h)
Just the number please, in h, no unit attached.

Req: Give recorded Tmax. `Cc1ccc(C(=O)NNC(=O)c2c(C)cccc2Cl)cc1C#Cc1cnc2ccccc2c1`
Resp: 2

----------
# assay-remarks: Plasma pharmacokinetics, Parkinson's disease patients, once daily for 14 days
# Assay type: in vivo, human
# condition-details: human, oral, 6 mg, Day 14, plasma, PD patients, read-out: Tmax median (range)
readout: Tmax (h)
Write down the numeric answer in h and omit the unit.

Req: Answer with the recorded Tmax of `Cc1ccc(C(=O)NNC(=O)c2c(C)cccc2Cl)cc1C#Cc1cnc2ccccc2c1` only.
Resp: 2

----------
# assay-remarks: Plasma pharmacokinetics, Parkinson's disease patients, once daily for 14 days
# Format: in vivo, human
# condition-details: human, oral, 12 mg, Day 14, plasma, PD patients, read-out: AUC0-24 Mean
readout: AUC(0-t) (ng·h/mL)
All answers are understood in ng·h/mL, so give the number only.

Req: Consider the compound `Cc1ccc(C(=O)NNC(=O)c2c(C)cccc2Cl)cc1C#Cc1cnc2ccccc2c1` . State its measured AUC(0-t).
Resp: 3250

----------
# assay-remarks: Plasma pharmacokinetics, 7 once-daily oral doses, healthy volunteers
# Format: in vivo, human
# condition-details: male, human, plasma, oral, 48 mg, Day 1, plasma, healthy volunteers; read-out: Cmax AM
readout: Cmax (ng/mL)
Expressed in ng/mL, but write only the number.

Req: Provide one value: measured Cmax of `Cc1ccc(C(=O)NNC(=O)c2c(C)cccc2Cl)cc1C#Cc1cnc2ccccc2c1`
Resp: 1380

----------
# assay-remarks: Plasma pharmacokinetics, 7 once-daily oral doses, healthy volunteers
# Assay type: in vivo, human
# condition-details: male, human, plasma, oral, 384 mg, Day 7, plasma, healthy volunteers; read-out: AUC0-24 Min, Max
readout: AUC(0-t)

Req: Report AUC(0-t), nothing else, for this molecule: `Cc1ccc(C(=O)NNC(=O)c2c(C)cccc2Cl)cc1C#Cc1cnc2ccccc2c1`
Resp: 11.5 to 125 µg·h/mL

----------
# system: UniProt P00519
# Sequence (P00519 whole entry): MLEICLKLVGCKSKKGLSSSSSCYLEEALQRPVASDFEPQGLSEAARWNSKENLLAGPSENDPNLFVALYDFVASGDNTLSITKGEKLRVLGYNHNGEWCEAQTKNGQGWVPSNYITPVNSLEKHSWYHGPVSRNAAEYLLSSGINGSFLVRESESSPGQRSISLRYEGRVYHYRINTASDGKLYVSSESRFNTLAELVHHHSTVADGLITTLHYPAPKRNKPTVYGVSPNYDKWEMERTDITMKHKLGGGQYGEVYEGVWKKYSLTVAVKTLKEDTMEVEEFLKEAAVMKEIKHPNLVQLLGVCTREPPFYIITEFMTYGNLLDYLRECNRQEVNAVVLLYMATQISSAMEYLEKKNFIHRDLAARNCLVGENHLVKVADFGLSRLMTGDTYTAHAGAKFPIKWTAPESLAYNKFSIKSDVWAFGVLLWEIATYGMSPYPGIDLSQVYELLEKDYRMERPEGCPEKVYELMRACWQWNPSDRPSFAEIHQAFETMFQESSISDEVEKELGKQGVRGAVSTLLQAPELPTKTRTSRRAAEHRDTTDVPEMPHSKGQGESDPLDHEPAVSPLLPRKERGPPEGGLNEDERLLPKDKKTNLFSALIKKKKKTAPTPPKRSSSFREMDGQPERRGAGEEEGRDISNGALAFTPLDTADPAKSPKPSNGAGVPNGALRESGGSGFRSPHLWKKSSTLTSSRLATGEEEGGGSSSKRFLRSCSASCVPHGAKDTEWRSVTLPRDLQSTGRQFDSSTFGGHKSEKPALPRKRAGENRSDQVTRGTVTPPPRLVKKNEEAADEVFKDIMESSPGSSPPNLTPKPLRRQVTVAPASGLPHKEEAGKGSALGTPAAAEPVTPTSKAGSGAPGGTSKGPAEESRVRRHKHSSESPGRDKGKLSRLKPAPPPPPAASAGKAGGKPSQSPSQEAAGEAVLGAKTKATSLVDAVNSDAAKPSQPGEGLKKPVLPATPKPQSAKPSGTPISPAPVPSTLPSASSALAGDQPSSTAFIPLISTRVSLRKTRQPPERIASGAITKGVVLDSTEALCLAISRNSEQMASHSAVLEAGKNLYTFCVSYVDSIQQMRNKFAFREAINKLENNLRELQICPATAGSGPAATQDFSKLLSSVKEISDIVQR
readout: Kd (nM)
Numbers only here, please. The scale is nM.

Req: Please report Kd with UniProt P00519 for item `Cc1ccc(C(=O)NNC(=O)c2c(C)cccc2Cl)cc1C#Cc1cnc2ccccc2c1` .
Resp: 0.98

----------
# assay-remarks: Plasma pharmacokinetics, Parkinson's disease patients, once daily for 14 days
# Format: in vivo, human
# condition-details: human, oral, 6 mg, Day 1, plasma, PD patients
readout: Cmax (ng/mL)
Quick note: give the figure in ng/mL, leave out the unit.

Req: For the compound `Cc1ccc(C(=O)NNC(=O)c2c(C)cccc2Cl)cc1C#Cc1cnc2ccccc2c1` , report Cmax.
Resp: 164

----------
# assay-remarks: Plasma pharmacokinetics, 7 once-daily oral doses, healthy volunteers
# Assay type: in vivo, human
# condition-details: male, human, plasma, oral, 192 mg, Day 1, plasma, healthy volunteers; read-out: Cmax Median
readout: Cmax (ng/mL)
Could you give me the number in ng/mL? Just the number is fine.

Req: Given the molecule `Cc1ccc(C(=O)NNC(=O)c2c(C)cccc2Cl)cc1C#Cc1cnc2ccccc2c1` , write its reported Cmax.
Resp: 3180

----------
# assay-remarks: CSF pharmacokinetics on Day 7, healthy volunteers
# Type: in vivo, human
# condition-details: male, human, CSF, oral, 48 mg, Day 7, CSF, healthy volunteers; read-out: CSF Tmax Min, Max
readout: Tmax

Req: Indicate its recorded Tmax; the molecule in question is `Cc1ccc(C(=O)NNC(=O)c2c(C)cccc2Cl)cc1C#Cc1cnc2ccccc2c1`
Resp: 3 to 6.02 h
